The measurements presented in this section are drawn from ChEMBL document CHEMBL1124424.

Target: Aromatase (Homo sapiens)
Sequence (P11511 whole entry): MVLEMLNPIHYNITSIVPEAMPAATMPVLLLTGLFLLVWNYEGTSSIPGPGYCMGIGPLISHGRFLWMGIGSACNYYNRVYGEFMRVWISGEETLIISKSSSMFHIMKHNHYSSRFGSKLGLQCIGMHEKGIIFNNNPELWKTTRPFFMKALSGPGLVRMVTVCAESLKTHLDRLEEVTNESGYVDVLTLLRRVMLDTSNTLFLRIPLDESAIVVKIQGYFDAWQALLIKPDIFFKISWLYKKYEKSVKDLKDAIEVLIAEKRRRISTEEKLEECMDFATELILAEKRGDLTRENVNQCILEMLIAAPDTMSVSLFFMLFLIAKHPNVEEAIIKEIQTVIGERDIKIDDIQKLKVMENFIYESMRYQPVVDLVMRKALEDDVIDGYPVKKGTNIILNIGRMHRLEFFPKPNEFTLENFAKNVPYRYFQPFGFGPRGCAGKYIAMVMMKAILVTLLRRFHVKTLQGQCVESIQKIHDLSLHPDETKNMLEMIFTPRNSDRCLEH
Test: Inactivation rate (Ki) for human placental Cytochrome P450 19A1
Measure name: pKi
Remember, pKi is on a log scale: it is -log10 of the molar concentration.

## Task So what does the record say about pKi for C[C@]12CCC(=O)C[C@@H]1CC[C@@H]1[C@@H]2CC[C@]2(C)[C@@H](O)CC[C@@H]12 ?
## Result 5.81

## Task Looking for the measured pKi of CC12CCCC1C1CCC3=CC(=O)C=CC3(C)C1CC2 (configuration not stated) , can you help?
## Result 5.96

====

Biological target: Aromatase (Homo sapiens)
Test: Inactivation rate (Ki) for human placental aromatase Cytochrome P450 19A1
Measure name: Ki (nM)
Respond numerically; units are nM and should not be typed.

## Task So what does the record say about Ki for C[C@]12C=CC(=O)C=C1CC[C@@H]1[C@@H]2CC[C@]2(C)C(=O)OC[C@@H]12 ?
## Result 390
